target: T1, human CLDN18.2 (human); experiment: FACS, KATOIII cells (natural CLDN18.2)
T1 construct: also called claudin18.2
measuredEndpoint: EC50 (nM)
Your answer is read as nM, so omit the unit and give the number.

Recorded EC50, per entry:
binder: IMAB362 (antibody, human IgG1, kappa, V domains shown, Positive control, prepared in-house; also called Claudiximab; TMAB362 [sic]) VH: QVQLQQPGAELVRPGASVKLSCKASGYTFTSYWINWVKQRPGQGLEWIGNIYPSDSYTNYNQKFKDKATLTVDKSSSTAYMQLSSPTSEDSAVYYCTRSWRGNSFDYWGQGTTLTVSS VL: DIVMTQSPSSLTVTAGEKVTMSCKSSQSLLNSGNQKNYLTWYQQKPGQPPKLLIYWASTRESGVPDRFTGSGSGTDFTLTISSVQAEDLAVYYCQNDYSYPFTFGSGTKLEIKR
EC50 (nM): 81.3
//
binder: chimeric antibody xi22F12 (antibody, human IgG1, kappa, V domains shown, Mouse variable regions on human IgG1/kappa; defucosylated, expressed in FUT8-knockout CHO-S cells; also called chimeric 22F12) VH: QVQLKESGPGLVAPSQSLSITCTVSGFSLTSYGVYWVRQPPGKGLEWLGVIWAGGSTNYNSALMSRLSINKDNSKSQVFLKMNSLQTDDTAMYYCARDRGRLLSMDYWGQGTSVTVSS VL: DIVMTQSPSSLSVSAGEKVTMSCRSSQSLLNSGNQKNYLAWYQQKPGQPPKLLIYGASTRESGVPDRFTGSGSGTDFTLTIGSVQAEDLAVYYCQNVHFFPFTFGSGTKLEIKR
EC50 (nM): 3.68
//
binder: chimeric antibody xi28G3 (antibody, human IgG1, kappa, V domains shown, Mouse variable regions on human IgG1/kappa; defucosylated, expressed in FUT8-knockout CHO-S cells; also called chimeric 28G3) VH: EIQLQQTGPELVKPGASVTISCKTSGYSFTDYLMLWVKQSHGKSLEWIGNINPYYGRTTYNLKFKGKATLTVDRSSSTAYMQLNSLTSEDSAVYYCARDGYSLRNAMDYWGQGTSVTVSS VL: DIVMTQSPYSLSVSTGEKVTMSCKSSQSLFNSGNQKNYLAWYQQKPGQPPKLLIYGASTRESGVPDRFTGSGSGTDFTLTISSVQAEDLALYYCQNAHSYPYTFGGGTKLEIKR
EC50 (nM): 3.31

Now look at this entry.
# input Look up EC50 of chimeric antibody xi10D8 (antibody, human IgG1, kappa, V domains shown, Mouse variable regions on human IgG1/kappa; defucosylated, expressed in FUT8-knockout CHO-S cells; also called chimeric 10D8) VH: QIQLAQSGPELKKPGETVKVSCKASGYTFKNYGMNWVKQAPGKGLKWMGWININTGEPRYAEEFKGRIAFSLETSASTAYLLINNLKNEDTATYFCARYGYGNSFPYWGQGTLVTVSA VL: DIVMTQSPSSLTVTVGEKVTMSCKSSQSLLNSGNQRNYLTWYQQKPGQPPKLLIYWASTRESGVPDRFTGSGSGTAFTLTVSSVQAEDLAVYYCQNDYSYPLTFGAGTKLEMKR and report it.
# output 13.9

Recorded values, source patent US20240409629A1.
